This collection of values is drawn from patent US20190322748A1.

Entries and their measured Kd follow.
Biological target: T1, human PD1-ECD (human, UniProt Q15116 25-170)
T1 construct: SPR analyte; also called hu PD1-ECD
Assay: SPR; row head 'Affinity KD 37°C [nM] *)', second of two values (equals the 25 C value of Table 9)

binder	Kd (nM)
PD1-0103-0313 (antibody, human IgG1, V domains shown, Humanized) VH: EVQLLESGGGLVQPGGSLRLSCAASGFSFSSYTMSWVRQAPGKGLEWVATISGGGRDIYYPDSVKGRFTISRDNSKNTLYLQMNSLRAEDTAVYYCVLLTGRVYFALDSWGQGTLVTVSS VL: DVVMTQSPLSLPVTLGQPASISCRASESVDTSDNSFIHWYQQRPGQSPRLLIYRSSTLESGVPDRFSGSGSGTDFTLKISRVEAEDVGVYYCQQNYDVPWTFGQGTKVEIK	2.3
PD1-0103-0315 (antibody, human IgG1, V domains shown, Humanized) VH: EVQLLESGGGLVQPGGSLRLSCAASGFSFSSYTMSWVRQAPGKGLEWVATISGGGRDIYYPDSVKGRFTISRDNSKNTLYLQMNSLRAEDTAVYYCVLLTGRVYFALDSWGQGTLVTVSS VL: EIVLTQSPATLSLSPGERATLSCRASESVDTSDNSFIHWYQQKPGQSPRLLIYRSSTLESGIPARFSGSGSGTDFTLTISSLEPEDFAVYYCQQNYDVPWTFGQGTKVEIK	1.5
PD1-0103-0312 (antibody, human IgG1, V domains shown, Humanized) VH: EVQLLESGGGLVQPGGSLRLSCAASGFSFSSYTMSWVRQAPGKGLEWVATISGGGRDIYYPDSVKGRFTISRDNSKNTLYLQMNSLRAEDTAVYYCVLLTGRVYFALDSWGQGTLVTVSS VL: DIVMTQSPDSLAVSLGERATINCKASESVDTSDNSFIHWYQQKPGQSPKLLIYRSSTLESGVPDRFSGSGSGTDFTLTISSLQAEDVAVYYCQQNYDVPWTFGQGTKVEIK	1.8
